system: hypoxia-inducible endogenous VEGF expression; test: Hypoxia-inducible endogenous VEGF expression ELISA in HeLa cells, dose-response EC50 (Table 3); type: cell-based, human; details: Homo sapiens, HeLa, read-out: ELISA EC50 μM
property_label: EC50

Some molecules with known EC50 results, for comparison:
In [3]: df
Out[3]:
                                   molecule  property_label            result
0  CN1CCN(CCCCCCOc2ccc(C3c4[nH]c5ccc(Cl)cc5c4CCN3C(=O)Oc3ccc(Cl)cc3)cc2)CC1 (centres unmarked)            EC50  0.008 to 0.04 µM
1  O=C(Oc1ccc(Cl)cc1)N1CCc2c([nH]c3ccc(Cl)cc23)C1c1ccc(OCC(O)CN2CCCC2)cc1 (centres unmarked)            EC50  0.008 to 0.04 µM
2  O=C(Oc1ccc(Cl)cc1)N1CCc2c([nH]c3ccc(Cl)cc23)[C@@H]1c1ccc(Oc2ncc(CN3CCOCC3)s2)cc1            EC50        < 0.008 µM
3  O=C(Oc1ccc(Cl)cc1)N1CCc2c([nH]c3ccc(Cl)cc23)C1c1ccc(OCCCN2CCSCC2)cc1 (centres unmarked)            EC50        < 0.008 µM
4  CN(C)CCCOc1ccc(C2c3[nH]c4ccc(Cl)cc4c3CCN2C(=O)Oc2ccccc2)cc1 (centres unmarked)            EC50    0.04 to 0.2 µM

Prompt line: Retrieve EC50 measured for O=C(Oc1ccc(Cl)cc1)N1CCc2c([nH]c3ccc(Cl)cc23)[C@@H]1c1ccc(OCCCN(CCO)CCO)cc1 and print it.
Response line: < 0.008 µM

Prompt line: Tell us which EC50 value is on record for CC(C)NCCCCOc1ccc(C2c3[nH]c4ccc(Cl)cc4c3CCN2C(=O)Oc2ccc(Cl)cc2)cc1 (centres unmarked)
Response line: 0.008 to 0.04 µM

Prompt line: Supply EC50 value. Item: COc1ccc(C2c3[nH]c4ccc(Cl)cc4c3CCN2C(=O)Oc2ccc(Cl)cc2)cc1OCCCCN1CCOCC1 (centres unmarked)
Response line: 0.04 to 0.2 µM

Prompt line: Indicate its recorded EC50; the molecule in question is O=C(Oc1ccc(F)cc1)N1CCc2c([nH]c3ccc(Cl)cc23)C1c1ccc(OCCCCCCNCCO)cc1 (centres unmarked)
Response line: < 0.008 µM

Prompt line: # return recorded EC50 for entry CC1(C)C(=O)NC(=O)N1CCCOc1ccc(C2c3[nH]c4ccc(Cl)cc4c3CCN2C(=O)Oc2ccc(Cl)cc2)cc1 (centres unmarked)
Response line: < 0.008 µM

Prompt line: Input CN(C)CCCOc1ccc(C2c3[nH]c4ccc(Cl)cc4c3CCN2C(=O)Oc2ccc(Cl)cc2)cc1 (centres unmarked) , output reported EC50.
Response line: 0.04 to 0.2 µM

Prompt line: # return recorded EC50 for entry COCCN(CCCOc1ccc(C2c3[nH]c4ccc(Cl)cc4c3CCN2C(=O)Oc2ccc(Cl)cc2)cc1)CCOC (centres unmarked)
Response line: < 0.008 µM

Prompt line: Tell me its EC50 given COc1ccc(C2c3[nH]c4ccc(Cl)cc4c3CCN2C(=O)Oc2ccc(Cl)cc2)cc1OCCCN1CCOCC1 (centres unmarked) as the entry.
Response line: 0.2 to 1 µM

Prompt line: Please give the documented EC50 of O=C(Oc1ccc(F)cc1)N1CCc2c([nH]c3ccc(Cl)cc23)C1c1cccc(OCCCN2CCSCC2)c1 (centres unmarked)
Response line: 0.008 to 0.04 µM
